Target: HDAC6 enzyme (Homo sapiens, UniProt Q9UBN7)
Construct: HDAC6 enzyme prepared by transducing full length HDAC6 gene into Sf-9 insect cells; GST; purchased SignalChem; host or cells: Sf-9 insect cells
Sequence (Q9UBN7 1-1215): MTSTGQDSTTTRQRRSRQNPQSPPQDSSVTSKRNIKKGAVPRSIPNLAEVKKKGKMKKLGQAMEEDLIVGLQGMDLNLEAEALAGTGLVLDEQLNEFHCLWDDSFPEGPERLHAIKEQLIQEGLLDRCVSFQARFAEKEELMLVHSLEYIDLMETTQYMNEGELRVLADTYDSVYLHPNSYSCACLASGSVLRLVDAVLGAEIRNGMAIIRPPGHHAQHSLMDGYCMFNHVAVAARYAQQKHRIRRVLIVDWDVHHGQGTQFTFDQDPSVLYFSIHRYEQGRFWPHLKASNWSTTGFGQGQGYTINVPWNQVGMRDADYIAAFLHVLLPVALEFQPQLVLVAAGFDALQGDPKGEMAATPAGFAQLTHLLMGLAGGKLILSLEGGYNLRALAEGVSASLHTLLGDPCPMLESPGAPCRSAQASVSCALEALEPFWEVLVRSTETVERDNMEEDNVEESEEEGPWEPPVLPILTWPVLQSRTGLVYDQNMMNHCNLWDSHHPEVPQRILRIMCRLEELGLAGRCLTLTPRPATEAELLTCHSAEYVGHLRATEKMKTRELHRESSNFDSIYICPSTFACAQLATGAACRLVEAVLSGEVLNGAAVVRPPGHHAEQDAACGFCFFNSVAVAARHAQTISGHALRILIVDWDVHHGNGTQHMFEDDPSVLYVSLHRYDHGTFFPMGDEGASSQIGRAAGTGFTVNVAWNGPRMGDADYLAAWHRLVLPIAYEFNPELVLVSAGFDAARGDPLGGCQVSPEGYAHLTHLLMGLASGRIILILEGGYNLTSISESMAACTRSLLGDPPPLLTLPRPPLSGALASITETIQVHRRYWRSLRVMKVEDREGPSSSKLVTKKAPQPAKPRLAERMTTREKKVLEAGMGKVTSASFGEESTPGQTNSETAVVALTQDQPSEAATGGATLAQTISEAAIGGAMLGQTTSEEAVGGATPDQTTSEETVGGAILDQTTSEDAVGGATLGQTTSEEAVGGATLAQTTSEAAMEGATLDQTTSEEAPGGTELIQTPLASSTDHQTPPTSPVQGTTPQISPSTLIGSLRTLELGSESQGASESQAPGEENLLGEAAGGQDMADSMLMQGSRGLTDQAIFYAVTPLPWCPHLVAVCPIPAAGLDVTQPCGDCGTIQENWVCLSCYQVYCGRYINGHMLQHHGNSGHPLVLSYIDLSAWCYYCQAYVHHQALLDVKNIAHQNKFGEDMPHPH
Assay: HDAC6 enzyme inhibitory assay (HDAC-Glo I/II Assay kit)
Format: biochemical
Details: wells without enzyme = 100% inhibition, 10 µM
Measurement label: HDAC6 inhibitory rate (%) (10 μM)

- O=C1c2cc(-c3nnc(C(F)F)o3)ccc2CN1[C@H](c1ccc(F)cn1)[C@@H](O)c1ccccn1 (single isomer, unassigned) [Example 60]: 99
- O=C1c2cc(-c3nnc(C(F)F)o3)ccc2CN1[C@H](C1CCOCC1)[C@@H](O)c1ccc(F)c(F)c1 (single isomer, unassigned) [Example 88]: 99
- O=C1c2cc(-c3nnc(C(F)F)o3)ccc2CN1[C@H](c1cnccn1)[C@@H](O)c1ccc(Cl)cc1 (single isomer, unassigned) [Example 97]: 99
